Biological target: T1, Peptide-3 (cysteine pairing not given here; also: biotinylated, site not given here)
T1 peptide: IDFCMLYNWPICAG
Experiment: ELISA, Fab on captured biotin-peptide
Where no end group is shown, it is not given here.
This listing pairs binders with measured pEC50.
In plain terms, pEC50 is the concentration in mol/L turned into minus its base-10 logarithm.

Sample answers from the record:
TBD-17 (HC S104A) (Fab, V domains shown, Fab; also called HC S104A mutant) VH: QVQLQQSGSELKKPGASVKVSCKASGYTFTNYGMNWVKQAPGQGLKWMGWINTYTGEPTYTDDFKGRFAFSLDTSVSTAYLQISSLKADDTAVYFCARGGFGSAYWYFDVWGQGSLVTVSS VL: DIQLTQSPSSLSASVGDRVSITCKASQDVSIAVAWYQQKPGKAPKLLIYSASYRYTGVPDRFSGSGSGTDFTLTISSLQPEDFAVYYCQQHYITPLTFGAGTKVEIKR | 7.64
TBD-21 (HC F108A) (Fab, V domains shown, Fab; also called HC F108A mutant) VH: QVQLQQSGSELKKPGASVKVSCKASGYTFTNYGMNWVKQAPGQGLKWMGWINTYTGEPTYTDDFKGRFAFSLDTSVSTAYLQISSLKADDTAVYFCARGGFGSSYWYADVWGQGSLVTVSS VL: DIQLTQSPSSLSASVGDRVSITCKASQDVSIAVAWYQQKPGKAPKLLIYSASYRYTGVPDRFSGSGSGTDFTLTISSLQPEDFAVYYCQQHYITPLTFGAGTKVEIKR | 7.51

Qu. Look at this binder and give its reported pEC50. TBD-6 (LC I93A) (Fab, V domains shown, Fab; also called LC I93A mutant) VH: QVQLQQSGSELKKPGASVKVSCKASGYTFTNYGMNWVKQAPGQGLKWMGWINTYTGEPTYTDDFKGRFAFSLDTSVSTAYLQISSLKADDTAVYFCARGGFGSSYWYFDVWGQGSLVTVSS VL: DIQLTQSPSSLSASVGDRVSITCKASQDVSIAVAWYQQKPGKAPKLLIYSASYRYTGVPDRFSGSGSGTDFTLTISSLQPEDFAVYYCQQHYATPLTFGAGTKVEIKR
Ans. 7.74
